- Target System: T1, mouse FcRn (mouse, UniProt Q61559 22-297; P01887 21-119, limits assumed)
- T1 sequence (looked up) 1: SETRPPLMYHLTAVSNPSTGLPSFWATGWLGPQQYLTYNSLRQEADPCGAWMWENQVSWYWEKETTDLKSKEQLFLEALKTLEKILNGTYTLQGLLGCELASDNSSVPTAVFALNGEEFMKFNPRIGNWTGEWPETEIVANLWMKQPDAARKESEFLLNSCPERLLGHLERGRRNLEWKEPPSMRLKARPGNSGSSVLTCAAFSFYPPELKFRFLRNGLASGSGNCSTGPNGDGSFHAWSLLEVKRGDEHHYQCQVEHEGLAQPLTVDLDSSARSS
- T1 sequence (looked up) 2: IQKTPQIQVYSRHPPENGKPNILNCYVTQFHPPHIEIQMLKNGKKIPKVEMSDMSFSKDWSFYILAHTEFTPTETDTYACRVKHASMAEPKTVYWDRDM
- Experimental Protocol: SPR, pH 7.4

Binder	Kd, nM
Fc Fragment 10 (other, Human IgG1 Fc fragment; substitutions already in the entry) DKTHTCPPCPAPELLGGPSVFLFPPKPKDTLYITREPEVTCVVVDVSHEDPEVKFNWYVDGVEVHNAKTKPREEQYNSTYRVVSVLTVLHQDWLNGKEYKCKVSNKALPAPIEKTISKAKGQPREPQVYTLPPSRDELTKNQVSLTCLVKGFYPSDIAVEWESNGQPENNYKTTPPVLDSDGSFFLYSKLTVDKSRWQQGNVFSCSVLHEALKYHYTQKSLSLSPG	1.53
